Test system: A673/TR/shEF
Method: cell viability (LOESS-normalised, relative to median of negative controls) (log2 ratio); higher = more viable cells (less compound effect), active = hit call of the paper (over 3 MAD below the median)
Condition details: 2.5 µM; library screen: screen1; EWS-FLI1 expression: low (doxycycline-induced shRNA knockdown); treatment time: 72 h
Screen size: about 3,200 compounds; about 300 (9.4%) showed activity. The entries come from a sample that favours actives as a whole.
Bench note: report the call from yes = active, no = inactive

// query Assay result, entry CC(=O)OC1CC[C@@]2(C)C(CC[C@]3(C)C2CCC2C4CC(C)(C)CCC4(C(=O)O)CC[C@]23C)C1(C)C (stereo partly drawn) — outcome?
// result no

// query Assay result, entry CN(C)c1ccc(C=C2SC(=S)N(c3ccc(F)cc3)C2=O)cc1 — outcome?
// result no

// query Assay result, entry COC(=O)Nc1nc2ccc(Sc3ccccc3)cc2[nH]1 — outcome?
// result no

// query Assay result, entry CCN1CCN(CC(O)COc2cc(C)c(Cl)c(C)c2)CC1 (stereo not drawn) — outcome?
// result no

// query Assay result, entry NC(N)=NCCN1CCCCCCC1 — outcome?
// result no

// query Assay result, entry CCc1nc(N)nc(N)c1-c1ccc(Cl)cc1 — outcome?
// result no

// query Assay result, entry Cc1c(C(=O)O)c(O)cc2c1C(=O)c1c(O)c([C@@H]3O[C@H](CO)[C@@H](O)[C@H](O)[C@H]3O)c(O)c(O)c1C2=O — outcome?
// result no

// query Assay result, entry C=C1CC[C@@H]2[C@H](CC2(C)C)C(=O)CC[C@@H]1O — outcome?
// result no

// query Assay result, entry O=c1cccc2cc(O)c(O)c(O)c2c1O — outcome?
// result no

// query Assay result, entry CCC(=O)c1ccc2c(c1)N(CC(C)N(C)C)c1ccccc1S2 (stereo not drawn) — outcome?
// result no

// query Assay result, entry CC(C)(C)n1nc(-c2ccc(Cl)cc2)c2c(N)ncnc21 — outcome?
// result no

// query Assay result, entry CCCCC1C(=O)N(c2ccccc2)N(c2ccc(O)cc2)C1=O (stereo not drawn) — outcome?
// result no

// query Assay result, entry COC(=O)Nc1nc2ccc(C(=O)c3cccs3)cc2[nH]1 — outcome?
// result yes

// query Assay result, entry CC(C(=O)O)c1cccc(C(=O)c2ccccc2)c1 (stereo not drawn) — outcome?
// result no

// query Assay result, entry CC(=O)O[C@@H]1CC[C@@]2(C)C(=CC=C3[C@@H]4CC[C@H]([C@H](C)/C=C/[C@H](C)C(C)C)[C@@]4(C)CC[C@@H]32)C1 — outcome?
// result no

// query Assay result, entry O=C(O)c1cc([N+](=O)[O-])ccc1NCCCc1ccccc1 — outcome?
// result no

// query Assay result, entry Cc1ccc(-c2nn(C(C)(C)C)c3ncnc(N)c23)cc1 — outcome?
// result no

// query Assay result, entry COc1cc(O)c2c(=O)cc(C)oc2c1CC=C(C)C — outcome?
// result no

// query Assay result, entry COC(=O)c1ccccc1 — outcome?
// result no

// query Assay result, entry COC(=O)Nc1nc2ccc(C(=O)c3ccccc3)cc2[nH]1 — outcome?
// result yes

// query Assay result, entry CC1(C)CC2C1CCC1(CBr)CCC3C(CC(=O)O)C(=O)OC32C1 (stereo not drawn) — outcome?
// result no

// query Assay result, entry CCCCC1C(=O)N(c2ccccc2)N(c2ccccc2)C1=O — outcome?
// result no

// query Assay result, entry COc1ccccc1-c1coc2cc(O)ccc2c1=O — outcome?
// result no
